Target: Solute carrier family 15 member 2 (Homo sapiens, UniProt Q16348)
Sequence (Q16348 whole entry): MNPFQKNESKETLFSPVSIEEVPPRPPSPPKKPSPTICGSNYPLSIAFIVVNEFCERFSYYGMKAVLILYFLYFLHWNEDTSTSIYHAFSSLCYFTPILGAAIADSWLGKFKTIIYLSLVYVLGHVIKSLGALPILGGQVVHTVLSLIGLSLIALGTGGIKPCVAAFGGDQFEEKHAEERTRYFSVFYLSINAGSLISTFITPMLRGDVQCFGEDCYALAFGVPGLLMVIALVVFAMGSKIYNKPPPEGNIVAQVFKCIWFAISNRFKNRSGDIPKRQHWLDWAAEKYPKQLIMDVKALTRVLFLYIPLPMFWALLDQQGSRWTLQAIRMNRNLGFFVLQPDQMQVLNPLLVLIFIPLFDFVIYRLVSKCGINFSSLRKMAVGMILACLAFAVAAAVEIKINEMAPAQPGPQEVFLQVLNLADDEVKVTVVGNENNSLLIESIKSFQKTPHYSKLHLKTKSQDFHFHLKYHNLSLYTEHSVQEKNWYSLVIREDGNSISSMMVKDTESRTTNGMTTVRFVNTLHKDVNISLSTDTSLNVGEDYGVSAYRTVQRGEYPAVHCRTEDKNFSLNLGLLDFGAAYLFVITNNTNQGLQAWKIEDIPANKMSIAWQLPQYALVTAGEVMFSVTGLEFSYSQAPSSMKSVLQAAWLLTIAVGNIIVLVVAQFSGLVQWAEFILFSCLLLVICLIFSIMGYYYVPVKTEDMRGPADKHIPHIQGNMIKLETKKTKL
Assay: Substrate uptake by the Peptide Transporter 2 (PEPT2, SLC15A2) as assessed by the fluorescent FLIPR membrane potential dye in HEK-293 JumpIN-SLC15A2 cells (PubChem AID: 1794819)
Property: EC50 (µM)
Kindly provide the numeric value in µM only, without the unit symbol.

Give the measured EC50 of NCCC(=O)N[C@@H](Cc1cnc[nH]1)C(=O)O [CARNOSINE] . 28
